B1: BCL2L13 (parent)
chain: QSLDQEILLKVKTEIEEELKSLDK

- Variants of: B1
- method description: protein stability index of a GFP-peptide fusion (GPS, HEK-293T) (PSI 1-6); higher = more stable;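 also: lentivirally expressed fusions sorted by FACS into six bins by GFP to DsRed ratio, PSI derived from sequencing read proportions per bin multiplied by bin number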
- stated conditions: c terminus: a fixed tail appended
protein stability index values, listed per item
experimental readout: protein stability index

# mutant designation, test result
data = [
    ("I15H", 5.29),
    ("L22M", 5.12),
    ("K12D", 4.08),
    ("K10E", 5.2),
    ("I7T", 4.27),
    ("Q5D", 5.28),
    ("K20W", 4.91),
    ("E18D", 5.58),
    ("L19P", 5.64),
    ("D23G", 4.41),
    ("S21G", 5.35),
    ("S2C", 4.09),
    ("I7D", 5.68),
    ("K12V", 4.1),
    ("V11L", 3.5),
    ("E16Y", 3.87),
    ("K10H", 4.66),
    ("I15V", 5.08),
    ("L3N", 5.64),
    ("D4N", 4.52),
    ("I7S", 5.69),
    ("E16L", 3.23),
]
